These data points were gathered from the supplement of paper PMC13380429.

I'd be grateful if you could share measured drug sensitivity score for these entries.
tested on: Vero E6; experiment: drug sensitivity score (DSS) for viability; higher = more toxic; extreme values may be limits of the assay; conditions: 72 h
Numbers only.

// below: answered compounds
compound=CC(C)=CCC[C@]1(C)C=Cc2c(O)c3c(c(CC=C(C)C)c2O1)O[C@]12C(=C[C@@H]4C[C@H]1C(C)(C)O[C@@]2(C/C=C(/C)C(=O)O)C4=O)C3=O assay_readout="drug sensitivity score" recorded_measurement=16.7
compound=CC(C)C[C@H](NC(=O)CNC(=O)c1cc(Cl)ccc1Cl)B1OC(=O)C(CC(=O)O)(CC(=O)O)O1 assay_readout="drug sensitivity score" recorded_measurement=23.8
compound=COc1ccc(NS(=O)(=O)c2ccc(N)cc2)nn1 assay_readout="drug sensitivity score" recorded_measurement=0

Lab note: each compound below needs its drug sensitivity score filled in.
1. COc1ccc(-c2cc(=O)c3c(OC)c(OC)c(OC)c(OC)c3o2)cc1
2. CN(C)C(=O)C(=O)c1cn(C)c2cc(Cl)c(C(=O)N3CCC(Cc4ccc(F)cc4)CC3)cc12
3. CNC(=O)c1cccc(-c2ccc3c(N4CCOC[C@@H]4C)nc(N4CCOC[C@@H]4C)nc3n2)c1
4. CC1=C(/C=C/C(C)=C/C=C/C(C)=C/C(=O)Nc2ccc(O)cc2)C(C)(C)CCC1 [fenretinide]
5. Cc1cc(Oc2ccc3nc(COc4ccc(CC5SC(=O)NC5=O)cc4)n(C)c3c2)cc(C)c1N (configuration not stated)
6. CSCC[C@H](NC(=O)[C@H](CC(C)C)NC(=O)[C@@H](Cc1c[nH]c2ccccc12)NC(=O)[C@H](Cc1ccccc1)N(C)C(=O)[C@@H](Cc1c[nH]c2ccccc12)NC(=O)[C@@H](N)CCCNC(=N)N)C(N)=O

## Output
[0, 0.1, 7.5, 0, 3.6, 0]

Required: drug sensitivity score, one value per compound below.
1. CCCC(=O)O [sodium-butyrate]
2. NCC1(CC(=O)O)CCCCC1
3. Cc1ccccc1N1CCN(CCc2nnc3n2CCCC3)CC1
4. COc1cc(NS(=O)(=O)c2ccc(N)cc2)ncn1

## Output
0
0
0
0

Batch of 7 compounds: report drug sensitivity score for each.
1. O=C(Nc1ccc(N2CCC(C(=O)N3CCOCC3)CC2)cc1)c1cnc(Oc2ccccc2)nc1
2. C[C@]12CCC(=O)C=C1CC[C@@H]1[C@@H]2[C@@H](O)C[C@@]2(C)[C@H]1CC[C@]2(O)C(=O)CO [hydrocortisone]
3. CCCCCCCCc1ccc(CCC(N)(CO)CO)cc1
4. COc1ccc(CC(=O)NC(/N=C(\NC#N)Nc2cccc3ncccc23)C(C)(C)C)cc1OC (configuration not stated)
5. Cc1ccc(N2CCN(CC[C@H]3NC(=O)c4ccccc43)CC2)cc1C
6. CCN1CCC[C@H]1CNC(=O)c1c(O)c(Cl)cc(Cl)c1OC [raclopride]
7. CC(=O)N(O)[C@@H]1c2cc(C#N)ccc2OC(C)(C)[C@H]1O

## Output
0
0
0.2
0
0
0
0

====

test system: Calu-3; assay: cell viability relative to DMSO; higher = less toxic; settings: 72 h; 10000 nM
ASSAY READOUT: cell viability (%)
Answers are plain numbers, in %.

compound="CCOC(=O)C1=C(C)NC(C)=C(C(=O)OC)[C@@H]1c1cccc([N+](=O)[O-])c1 (racemic)" unit_abbreviation=% recorded_measurement=87.1
compound="COc1cc([C@@H]2c3cc4c(cc3[C@@H](O[C@@H]3O[C@@H]5CO[C@@H](C)O[C@H]5[C@H](O)[C@H]3O)[C@H]3COC(=O)[C@H]23)OCO4)cc(OC)c1O [etoposide]" unit_abbreviation=% recorded_measurement=40.7
compound=Cc1ccc2nc(N)[nH]c(=O)c2c1Sc1ccncc1 unit_abbreviation=% recorded_measurement=99.1

Let us move to another entry and its cell viability.
## Input Consider the compound shown here: Cc1ccc(C[N+](C)(C)C)o1 [5-methylfurmethiodide] What is its recorded cell viability?
## Output 101
